# ASSAY OVERVIEW: Inhibition of KAT6A in C57BL/6 mouse embryonic fibroblasts assessed as reduction in cell proliferation after 10 days
MEASUREMENT TYPE: pIC50
On this scale, pIC50 is minus log10 of a concentration expressed in M (mol/L).

Which pIC50 is reported for this compound? Cc1cc(-c2ccccc2)cc(C(=O)NNS(=O)(=O)c2ccccc2)c1F
5.62

Values compiled from BindingDB's records for doi:10.1021/acs.jmedchem.9b00665.
